Entry source: patent US11021444B2

Listing of recorded IC50 by entry.
- TARGET OR TEST SYSTEM: recombinant RSV complex (Human respiratory syncytial virus A, UniProt P28887)
- Sequence (P28887 whole entry): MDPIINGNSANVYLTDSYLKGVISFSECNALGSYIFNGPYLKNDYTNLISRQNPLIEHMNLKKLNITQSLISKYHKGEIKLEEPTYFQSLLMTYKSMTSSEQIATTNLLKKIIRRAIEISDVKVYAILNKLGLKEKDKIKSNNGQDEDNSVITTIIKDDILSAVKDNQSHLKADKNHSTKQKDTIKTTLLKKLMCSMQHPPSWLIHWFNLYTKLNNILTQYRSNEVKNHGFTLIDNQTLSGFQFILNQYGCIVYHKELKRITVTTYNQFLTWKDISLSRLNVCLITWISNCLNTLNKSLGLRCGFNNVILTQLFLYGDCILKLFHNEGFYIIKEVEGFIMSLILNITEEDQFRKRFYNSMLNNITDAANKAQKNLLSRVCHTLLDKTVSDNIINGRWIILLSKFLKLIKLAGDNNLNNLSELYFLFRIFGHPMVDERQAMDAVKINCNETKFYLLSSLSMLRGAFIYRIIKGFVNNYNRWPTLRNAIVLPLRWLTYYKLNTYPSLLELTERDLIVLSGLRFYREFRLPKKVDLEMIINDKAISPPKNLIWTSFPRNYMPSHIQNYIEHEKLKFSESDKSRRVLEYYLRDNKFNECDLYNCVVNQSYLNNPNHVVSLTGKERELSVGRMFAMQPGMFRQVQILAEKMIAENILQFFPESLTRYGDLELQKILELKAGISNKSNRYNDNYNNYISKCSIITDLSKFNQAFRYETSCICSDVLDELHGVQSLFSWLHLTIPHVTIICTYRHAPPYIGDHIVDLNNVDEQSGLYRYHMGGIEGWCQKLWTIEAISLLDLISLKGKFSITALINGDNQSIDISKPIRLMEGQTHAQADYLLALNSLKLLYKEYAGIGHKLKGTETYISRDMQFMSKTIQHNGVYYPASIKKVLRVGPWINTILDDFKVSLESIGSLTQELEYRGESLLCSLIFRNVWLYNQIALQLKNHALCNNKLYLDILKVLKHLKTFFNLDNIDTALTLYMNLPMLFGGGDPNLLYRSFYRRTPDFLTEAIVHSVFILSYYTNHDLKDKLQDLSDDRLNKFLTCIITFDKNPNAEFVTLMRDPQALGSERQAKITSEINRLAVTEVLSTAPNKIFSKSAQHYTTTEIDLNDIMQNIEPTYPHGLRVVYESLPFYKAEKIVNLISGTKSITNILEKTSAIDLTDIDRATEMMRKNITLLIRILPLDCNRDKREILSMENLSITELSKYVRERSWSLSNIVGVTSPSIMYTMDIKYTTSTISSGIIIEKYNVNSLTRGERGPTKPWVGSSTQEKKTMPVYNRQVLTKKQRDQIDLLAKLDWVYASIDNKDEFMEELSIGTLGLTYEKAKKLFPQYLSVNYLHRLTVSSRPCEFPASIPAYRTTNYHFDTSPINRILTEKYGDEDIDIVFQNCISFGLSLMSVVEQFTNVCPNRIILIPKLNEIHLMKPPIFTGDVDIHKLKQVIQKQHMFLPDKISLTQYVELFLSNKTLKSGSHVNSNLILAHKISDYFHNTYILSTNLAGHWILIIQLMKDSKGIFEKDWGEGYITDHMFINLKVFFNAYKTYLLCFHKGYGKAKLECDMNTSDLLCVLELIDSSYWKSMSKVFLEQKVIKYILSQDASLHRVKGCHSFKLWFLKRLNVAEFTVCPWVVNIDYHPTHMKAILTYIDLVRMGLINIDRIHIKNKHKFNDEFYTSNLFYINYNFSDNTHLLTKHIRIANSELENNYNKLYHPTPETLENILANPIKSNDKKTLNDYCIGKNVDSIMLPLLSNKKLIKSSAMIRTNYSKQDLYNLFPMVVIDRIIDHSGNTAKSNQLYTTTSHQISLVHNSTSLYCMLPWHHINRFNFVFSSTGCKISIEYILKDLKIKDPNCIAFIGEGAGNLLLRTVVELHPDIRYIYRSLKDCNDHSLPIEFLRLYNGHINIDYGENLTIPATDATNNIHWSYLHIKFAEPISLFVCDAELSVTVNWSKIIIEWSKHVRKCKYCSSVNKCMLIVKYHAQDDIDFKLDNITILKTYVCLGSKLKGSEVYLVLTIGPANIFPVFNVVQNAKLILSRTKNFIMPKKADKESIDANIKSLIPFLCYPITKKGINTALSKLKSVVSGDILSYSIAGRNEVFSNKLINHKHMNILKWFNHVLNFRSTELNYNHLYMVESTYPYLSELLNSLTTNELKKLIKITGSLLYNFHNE
- Sequence (P03421 whole entry, further chain): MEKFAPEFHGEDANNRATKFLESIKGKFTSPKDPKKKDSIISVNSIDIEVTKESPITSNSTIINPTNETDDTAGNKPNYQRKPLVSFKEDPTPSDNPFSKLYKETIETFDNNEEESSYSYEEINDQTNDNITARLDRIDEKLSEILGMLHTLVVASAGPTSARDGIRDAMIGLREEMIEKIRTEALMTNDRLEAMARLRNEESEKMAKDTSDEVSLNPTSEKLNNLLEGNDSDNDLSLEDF
- METHOD DESCRIPTION: RSV Polymerase Inhibition Assay
- Type: biochemical
- Description: Standard RSV polymerase assays were conducted in the presence of 10 nM recombinant RSV complex in a reaction buffer containing Tris-HCl pH7.5, 6 mM MgCl2, and other additives and substrates including RNA oligonucleotides and radionucleotides. Standard reactions were incubated in 96-well plate format for 2 h at 30° C., in the presence of increasing concentration of inhibitor. The reaction was stopped with 90 μL of 0.1M EDTA, and the reaction product was transferred to a “reading” 96-well plate. […]

Guide cases for IC50, answers given:
1. COc1cc(C(=O)OCC(O)(CN)c2ccc(OC)c(-c3ccc(F)c(Cl)c3)n2)ccc1OC1CC1 (centres unmarked)	< 1000 nM
2. COc1cc(C(=O)NCC(O)(c2ccc(OC)c(-c3ccc(F)c(Cl)c3)n2)c2cnn(C)n2)ccc1OCCO (centres unmarked)	< 1000 nM
3. COc1cc(C(=O)NCC(O)(c2cc3c(c(-c4ccc(F)cc4)n2)OCC3(N)C(C)C)C(F)(F)F)ccc1OC[C@@H](C)O (some centres unmarked)	< 1000 nM
4. COc1cc(C(=O)NCC(O)(c2cc(C(C)(C)N(C)C)cc(-c3ccc(F)c(Cl)c3)n2)C(F)(F)F)ccc1OC1CC1 (centres unmarked)	< 1000 nM
5. CC(C)(N)c1cc(-c2ccc(F)c(Cl)c2)nc(C(O)(CNC(=O)c2ccc3c(c2)OCO3)C(F)(F)F)c1 (centres unmarked)	< 1000 nM

Quote IC50 with test system recombinant RSV complex (Human respiratory syncytial virus A, UniProt P28887) for CC(C)(N)c1cc(-c2ccc(F)c(Cl)c2)nc(C(O)(CNC(=O)c2cnc(Cl)s2)C(F)(F)F)c1 (centres unmarked)
< 1000 nM

Param request: IC50 | system recombinant RSV complex (Human respiratory syncytial virus A, UniProt P28887) | item CC(C)(N)c1cc(-c2ccc(F)c(Cl)c2)nc(C(O)(CNC(=O)c2cn3cccnc3n2)C(F)(F)F)c1 (centres unmarked)
< 10000 nM

State the measured IC50 (recombinant RSV complex (Human respiratory syncytial virus A, UniProt P28887)) of COc1cc(C(=O)NCC(N)(c2ccc(OC)c(-c3ccc(F)c(Cl)c3)n2)C(F)F)ccc1OC1CC1 (centres unmarked)
< 1000 nM

With recombinant RSV complex (Human respiratory syncytial virus A, UniProt P28887) as the test system, provide measured IC50 for this compound: COc1cc(C(=O)NCC(O)(c2cc(C3(C)CCN(C)C3)cc(-c3ccc(F)cc3)n2)C(F)(F)F)ccc1OC1CC1 (centres unmarked)
< 1000 nM

Supply IC50 measured with recombinant RSV complex (Human respiratory syncytial virus A, UniProt P28887) for COc1cc(C(=O)NCC(O)(c2cc3c(c(-c4ccc(F)cc4)n2)OCC3(C)N)C(F)(F)F)ccc1OC1CC(O)C1 (centres unmarked) .
< 10000 nM

Name the recorded IC50 of COc1cc(C(=O)NCC(O)(c2cc3c(c(-c4c[nH]c5c(F)cccc45)n2)OCC3)C2CC2)ccc1OCCO (centres unmarked) , assay system recombinant RSV complex (Human respiratory syncytial virus A, UniProt P28887).
< 1000 nM
